- measuredTarget: hen egg lysozyme, P00698
- Sequence (P00698 19-147): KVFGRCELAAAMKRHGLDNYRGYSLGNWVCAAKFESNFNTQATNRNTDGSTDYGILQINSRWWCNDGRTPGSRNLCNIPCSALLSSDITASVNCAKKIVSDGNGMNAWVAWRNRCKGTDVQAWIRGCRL
- assayDetails: SPR
- conditionContext: chain shown with the change;; parent: est. 3.1e-12; read off a plot
quantityKind: Kd (nM)

Would you please look over these solved cases?
{"binder": "anti-lysozyme VHH D3-L11, wild type A79F (protein) DVQLVESGGGSVQAGGSLRLSCAASGSTDSIEYMTWFRQAPGKAREGVAALYTHTGNTYYTDSVKGRFTISQDKAKNMFYLRMDSVKSEDTAIYTCGATRKYVPVRFALDQSSYDYWGQGTQVTVSS", "unitText": "nM", "recordedResult": 0.012}
{"binder": "anti-lysozyme VHH D3-L11, wild type A79T (protein) DVQLVESGGGSVQAGGSLRLSCAASGSTDSIEYMTWFRQAPGKAREGVAALYTHTGNTYYTDSVKGRFTISQDKAKNMTYLRMDSVKSEDTAIYTCGATRKYVPVRFALDQSSYDYWGQGTQVTVSS", "unitText": "nM", "recordedResult": 0.013}

a = anti-lysozyme VHH D3-L11, wild type A79N (protein) DVQLVESGGGSVQAGGSLRLSCAASGSTDSIEYMTWFRQAPGKAREGVAALYTHTGNTYYTDSVKGRFTISQDKAKNMNYLRMDSVKSEDTAIYTCGATRKYVPVRFALDQSSYDYWGQGTQVTVSS
b = anti-lysozyme VHH D3-L11, wild type A79Y (protein) DVQLVESGGGSVQAGGSLRLSCAASGSTDSIEYMTWFRQAPGKAREGVAALYTHTGNTYYTDSVKGRFTISQDKAKNMYYLRMDSVKSEDTAIYTCGATRKYVPVRFALDQSSYDYWGQGTQVTVSS
-- ask Hi, I'm comparing a with b and wondering which one has the bigger number for Kd. Any idea? State the label of the item chosen.
-- reply a
